Overview of reported growth inhibition across a group of compounds:
experiment: NCI Yeast Anticancer Drug Screen. Data for the rad50 strain (AID 155);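 further: 0% = growth of vehicle-only cultures of the same strain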; conditions: S. cerevisiae rad50 strain growth inhibition; at 50.0 µM; active compounds read high
Compounds without any hit were thinned out: in the full panel of roughly 79,000, 15% have a hit.
Just the number in %, nothing appended.

Compound: COC(=O)c1ccc(OCc2ccc3nc(OC)c(OC)nc3c2)cc1
Readout number: -32.1
--
Compound: CN1CCC=C(COC(=O)C(C)(C)C)C1
Readout number: 1.8

**Query** Fill blank: measured growth inhibition of the compound [N-]=[N+]=NCC(O)Cn1cnc2c(NC(=O)c3ccccc3)ncnc21 (centres undefined) is ____.
**Result** -14.7

**Query** Fill blank: measured growth inhibition of the compound CN1CCN=C(C(=O)O)C=C1c1ccccc1O is ____.
**Result** 28.9

**Query** Fill blank: measured growth inhibition of the compound CSC1(C)C(=O)Nc2cccc([N+](=O)[O-])c21 (centres undefined) is ____.
**Result** -9.85
